Origin of measurements: PubChem BioAssay (NCI)

Each item that follows carries a reported TGI.
# System: CAKI-1 renal
# testName: NCI tumour cell line growth inhibition, 48 h

# molecule, assayedTarget, TGI
data = [
    ("C=C(C)[C@@H]1CC[C@]2(C)[C@H](C(=O)C=C3[C@@H]4C[C@](C)(C(=O)N5CCN(C)CC5)CC[C@]4(C)CC[C@]32C)[C@@]1(C)CCC#N", "CAKI-1 renal", "12.5 µM"),
    ("O=C1C(/C=C/c2ccc(Cl)cc2)=NNC2N1N=C1NC(=O)C3(NN12)c1ccccc1-c1ccccc13 (stereo not given)", "CAKI-1 renal", "> 100 µM"),
    ("CCOC(=O)c1csc(NC(=O)CCN2CCCCC2)n1", "CAKI-1 renal", "> 100 µM"),
    ("CN1C2(c3ccccc3)c3c(-c4ccccc4)sc(-c4ccccc4)c3C1(c1ccccc1)C1C(=O)N(c3ccccc3)C(=O)C12 (stereo not given)", "CAKI-1 renal", "> 100 µM"),
    ("CC/C=C1\\N=C(c2ccc(Cl)cc2)OC1=O", "CAKI-1 renal", "> 100 µM"),
    ("COc1ccc(/C=C2\\CCCCC2=O)cc1", "CAKI-1 renal", "> 100 µM"),
    ("CN(C)c1ccc(/C=C(\\C#N)C(N)=C(C#N)C#N)cc1", "CAKI-1 renal", "> 100 µM"),
    ("NC(=O)C1=NNc2ccccc2C(=O)N1c1ccccc1", "CAKI-1 renal", "> 100 µM"),
    ("C1CCN(CCC2CCCCN2)CC1 (stereo not given)", "CAKI-1 renal", "> 100 µM"),
    ("COC(=O)C1(Cc2ccc3c(c2)CCC3)Cc2ccc3c(c2C1O)CCC3 (stereo not given)", "CAKI-1 renal", "29.4 µM"),
]

====

The entries below come with measured TGI values attached.
# Test system: UO-31 renal
# testName: NCI tumour cell line growth inhibition, 48 h

# compound, u, comparisonOperator, TGI
rows = [
    ("Cc1cccc(Oc2nccc(-c3c(-c4ccc(F)cc4)ncn3C3CCNCC3)n2)c1C", "µM", ">", 19.9),
    ("Cc1cc(C)nc(NS(=O)(=O)c2ccc(Nc3c4ccccc4nc4c(C(=O)NCCCN(CCO)CCO)cccc34)cc2)n1", "µM", ">", 100),
    ("COc1ccc(/C=C2\\C[C@H]3[C@@H]4CCC5=C[C@@H](N6CCCC6)CC[C@]5(C)[C@H]4CC[C@]3(C)[C@H]2O)cc1", "µM", "=", 3.26),
    ("CON(C)C(C#N)=C(C#N)C#N", "µM", ">", 10),
    ("CC1OC(OC2C(O[C@H]3CC[C@@]4(C)[C@@H](CC[C@@H]5[C@@H]4CC[C@]4(C)[C@@H]6[C@H](C[C@@H]54)O[C@]4(CC[C@@H](C)CO4)[C@H]6C)C3)OC(CO)C(OC3OC(CO)C(O)C(OC4OCC(O)C(O)C4O)C3OC3OCC(O)C(O)C3O)C2O)C(O)C(O)C1O (stereo partly drawn)", "µM", "=", 2.44),
    ("CC(C)C1(C)N=C(C(F)(F)F)c2cc(C(=O)C(F)(F)F)c3ccccc3c2N1 (stereo not drawn)", "µM", "=", 14.1),
    ("COc1ccc(C2SCC(=O)N2c2ccc(-n3c(-c4ccccc4)nc4ccccc4c3=O)cc2)cc1OC (stereo not drawn)", "µM", ">", 100),
    ("CCOC(=O)C(=O)Nc1ccc(C)cc1C", "µM", ">", 100),
    ("O=C(O)C1C(C(=O)Nc2ccc3c(c2)Cc2ccccc2-3)C2(Cl)C(Cl)=C(Cl)C1(Cl)C2(Cl)Cl (stereo not drawn)", "µM", "=", 55.5),
    ("CN(C)CCNc1ccc2c(=O)n(CCN(C)C)c(=O)n3c4ccc([N+](=O)[O-])cc4c(=O)c1c23", "µM", "=", 4.06),
    ("COc1cc(C2C(Cl)C(=O)N2NC(=O)c2ccccc2O)ccc1O (stereo not drawn)", "µM", ">", 100),
    ("O=C1Nc2cccc(Cl)c2/C1=C\\c1c(Cl)nc2sccn12", "µM", ">", 100),
    ("COc1ccc(/C=C2\\CCCCC2=O)cc1", "µM", ">", 100),
    ("CC(=O)N1CC(Nc2ccc(OC(F)(F)F)cc2)=CC1=O", "µM", ">", 100),
    ("N#Cc1c(-c2ccc([N+](=O)[O-])cc2)cc(-c2ccc(Nc3ccnc4cc(C(F)(F)F)ccc34)cc2)nc1N", "µM", "=", 36.5),
    ("Cc1cccc2c1Oc1cc(Cl)ccc1C2NC(=O)CCN1CCN(CCO)CC1 (stereo not drawn)", "µM", "=", 26.8),
    ("CCNC1(c2cccc(C)c2)OC(C)(C)c2cccc3cccc1c23 (stereo not drawn)", "µM", "=", 29.8),
    ("Cc1ccc(NC(=O)NC(=O)c2ccc([N+](=O)[O-])cc2[N+](=O)[O-])cc1Oc1ncc(Cl)cn1", "µM", "=", 17.3),
]

====

# Tested on: MDA-MB-231 breast
# testName: NCI tumour cell line growth inhibition, 48 h
assayReadout: log10 TGI (log10 of the value in µM)

# compound, log10 TGI
measured = [
    ("COCC1CCCN1c1ccc(/C=C(/C#N)C(N)=S)cc1 (stereo not drawn)", 1.75),
    ("Cc1cc2cc3cc(C)c(N(C)C)cc3nc2cc1N(C)C", 0.88),
    ("COc1cc(C2c3cc4c(cc3OC(Nc3ccc(C(=O)O)cc3)C2C)OCO4)cc(OC)c1OC (stereo not drawn)", 0.31),
    ("O=C1Nc2cccc(Cl)c2/C1=C\\c1c(Cl)nc2sccn12", 1.61),
    ("CCNCC(=O)O[C@]1(CC)C(=O)OCc2c1cc1n(c2=O)Cc2cc3ccccc3nc2-1", 1.99),
    ("CC(=O)c1c(C(F)(F)F)n([O-])c2ccc(Cl)cc2[n+]1=O", 0.51),
    ("NCCCNc1nc2ccccc2c2c(=O)c3cc(C(F)(F)F)ccc3sc12", 0.44),
    ("CC(C)(C)c1ccc(-c2nc3ccc([N+](=O)[O-])cc3c(=O)o2)cc1", 1.82),
    ("C=C(C)[C@@H]1CC[C@]2(C)[C@H](C(=O)C=C3[C@@H]4C[C@](C)(C(=O)N5CCN(C)CC5)CC[C@]4(C)CC[C@]32C)[C@@]1(C)CCC#N", 1.16),
    ("COc1ccc2nc3cccc([N+](=O)[O-])c3c(NCCO)c2c1", -1.39),
    ("CCCCCCCCCCCCCCCCCC1=NCCN1CS(=O)(=O)O", 1.37),
]

====

# Test system: HCT-15 colon
# testName: NCI tumour cell line growth inhibition, 48 h; in the data active = GI50 below about 0.43 µM; inactive = the rest
Labels: y (active), n (inactive)

# compound, assayedTarget, group
data = [
    ("CCCCCCCC/C=C/CCCCCCCCC1=NCCN1CCO", "HCT-15 colon", "n"),
    ("CS(=O)CCCCCN=C=S (stereo unspecified)", "HCT-15 colon", "n"),
    ("COc1ccc(-c2ccc(/C=N/n3c(COc4ccccc4Cl)nn(CN4CCN(C)CC4)c3=S)o2)c([N+](=O)[O-])c1", "HCT-15 colon", "n"),
    ("Cc1ccc(C2NC(=S)NC3=C2CCOc2c3ccc3ccccc23)cc1 (stereo unspecified)", "HCT-15 colon", "n"),
    ("COc1ccccc1-n1c(-c2cc(O)ccc2C)cn2c3c(=O)[nH]c(=O)n(C)c3nc12", "HCT-15 colon", "n"),
    ("CC(C)[C@@]12C[C@@H](OC(=O)[C@H]3CO3)[C@@](C)(O1)[C@@H]1CC[C@@H](C)[C@H]1[C@@H]2OC(=O)/C=C/c1ccccc1", "HCT-15 colon", "n"),
    ("CC(=O)N1CC(Nc2ccc(OC(F)(F)F)cc2)=CC1=O", "HCT-15 colon", "n"),
    ("COCC1CCCN1c1ccc(/C=C(/C#N)C(N)=S)cc1 (stereo unspecified)", "HCT-15 colon", "n"),
    ("CCOc1ccc([C@@H]2[C@@H](Oc3ccccc3)C(=O)N2c2cc(OC)c(OC)c(OC)c2)cc1", "HCT-15 colon", "y"),
    ("CN(C)c1ccc(C(=C2C=CC(=[N+](C)C)C=C2)c2ccc(N(C)C)cc2)cc1 (tested in a mixture with another compound)", "HCT-15 colon", "y"),
    ("CCN(CC)c1cc(/C=C/c2ccc(OC)c(OC)c2)nc2cc(F)c(F)cc12", "HCT-15 colon", "n"),
]

====

# Test system: U251 CNS
# testName: NCI tumour cell line growth inhibition, 48 h

# compound, assayedTarget, comparisonOperator, TGI [µM]
rows = [
    ("COc1ccc(-c2csc(=Nc3ccccc3)n2CC(O)c2ccc([N+](=O)[O-])cc2)cc1 (centres undefined)", "U251 CNS", ">", 100),
    ("O=c1[nH]c(=O)n(C2CC(O)C(CO)O2)cc1OCCCc1ccccc1 (centres undefined)", "U251 CNS", ">", 100),
    ("ClC1=C(Cl)C(Cl)=C(Cl)C1=C/C=C/c1ccccc1", "U251 CNS", "=", 1.37),
    ("CC1(C)CC(=O)C2=C(C1)c1c(ccc3ccccc13)NC2c1cn(Cc2ccc(Cl)cc2)c2ccccc12 (centres undefined)", "U251 CNS", ">", 100),
    ("NC(=O)N1N=C2c3ccccc3CC[C@@H]2C1c1ccccc1 (some centres undefined)", "U251 CNS", ">", 100),
    ("Cc1cccc2c1Oc1ccccc1C2NC(=O)c1ccc([N+](=O)[O-])cc1 (centres undefined)", "U251 CNS", ">", 100),
    ("COc1ccc(/C=C2\\CCCCC2=O)cc1", "U251 CNS", ">", 100),
    ("CSC(C1c2ccccc2N(C)C2=NC(=O)N(C)C(=O)C21Cl)S(=O)(=O)c1ccc(C)cc1 (centres undefined)", "U251 CNS", ">", 100),
    ("NC(CSC(c1ccccc1)(c1ccccc1)c1ccc(Cl)cc1)C(=O)O (centres undefined)", "U251 CNS", "=", 18.1),
    ("C[C@]12CC[C@@H]3c4cc(OCC(F)(F)F)c(O)cc4C(=O)C[C@H]3[C@@H]1CC[C@@H]2O", "U251 CNS", ">", 38.8),
    ("NC(=NCCCOc1ccc(Cl)cc1)Nc1ccc(Cl)cc1", "U251 CNS", "=", 8.36),
    ("COc1cc(NCCCCN=C(N)NC(N)=NC(C)C)c2ncccc2c1", "U251 CNS", "=", 21.1),
    ("CCCCc1c2c(nc3c1CCCC3O)/C(=C/c1ccccc1)CCC2 (centres undefined)", "U251 CNS", "=", 64.1),
    ("O=[N+]([O-])c1ccc(-c2nc(-c3ccccc3)c(-c3ccccc3)n2-c2ccccc2)cc1", "U251 CNS", "=", 10.7),
]
